From: PubChem BioAssay

# assay: anti-His antibody binders, primary screen, artefact control for SMM control protein annotation, biochemical, small-molecule microarray, 635 nm fluorescence (AID 1128);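 further: score merges feature fluorescence with signal-to-noise for each printed compound spot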
# conditions_used: anti-His Alexa647 antibody binding, higher = more signal
measured_attribute: composite z-score
Numbers only.

Take a look at these entries with their results.
- compound: "C=C(CCCC)/C(=C/C[C@@H](OC(=O)c1ccncc1)c1cccc(OCCO)c1)c1cnc2ccccc2c1"
  composite z-score: 0.65
- compound: "COc1ccc(C(O)C2C=CC3C(=O)N(c4ccccc4)C(=O)C3N2Nc2ccccc2)cc1OCc1ccccc1 (centres undefined)"
  composite z-score: 0.621
- compound: "CC(C)C[C@@H]1NC(=O)[C@H]2C[C@@H](C(=O)NCCCCCC[N+](C)(C)C)[C@@H](c3cccc(OCCO)c3)N2C1=O"
  composite z-score: 2.76

// switching to the query compound
// query Quick one: composite z-score of CC(C)C(O)C1C=CC2C(=O)N(C)C(=O)C2N1Nc1ccccc1 (centres undefined) ?
// result 0.932
